Listed next: entries and their corresponding photoluminescence quantum yield.
test: photoluminescence quantum yield (fraction); solvent given as SMILES; details: in ClCCl
Keep the answer to the number alone.

Example entries begin here.
Compound: C(=C\c1ccc(-c2nc3c4cccnc4c4ncccc4c3[nH]2)cc1)/c1ccncc1
photoluminescence quantum yield: 0.48
//
Compound: CCCCCCn1c2ccccc2c2cc(-c3ccc(-c4cc(-c5ccccn5)nc(-c5ccccn5)c4)cc3)ccc21
photoluminescence quantum yield: 0.73
//
Compound: CC(C)[Si](C#Cc1c2cc3ccccc3cc2c(C#Cc2ccc(Br)cc2)c2cc3ccccc3cc12)(C(C)C)C(C)C
photoluminescence quantum yield: 0.12
//
Compound: CC(C)c1cccc(C(C)C)c1N1C(=O)c2ccc3c(-c4ccc(C(=O)O)cc4)c4c5ccc6c7c(ccc(c(-c8ccc(C(=O)O)cc8)c4c4ccc(c2c34)C1=O)c75)C(=O)N(c1c(C(C)C)cccc1C(C)C)C6=O
photoluminescence quantum yield: 0.3
//
Compound: Oc1cc(-c2ccco2)ccc1-c1nc2ccccc2s1
photoluminescence quantum yield: 0.0812

Entry c1ccc(-c2c3ccccc3c(-c3cncnc3)c3ccccc23)cc1 has what photoluminescence quantum yield?
0.51

I am curious: what photoluminescence quantum yield value has been reported for CN(C)c1ccc(/C=C/c2cnccn2)cc1 ?
0.17

Given COC(=O)C1=C(C(=O)OC)C2(c3ccccc3-c3c(C(=O)OC)cccc32)[C@@H](c2ccc(Cl)cc2)C=C2c3cc(OC)c(OC)cc3CCN21 (stereo partly drawn) , state its recorded photoluminescence quantum yield.
0.00593

###

experiment: photoluminescence quantum yield (fraction); solvent given as SMILES; conditions: in C1CCOC1
Property: photoluminescence quantum yield

Item CC(C)(C)c1ccc(-c2c(-c3ccc(N(c4ccccc4)c4ccccc4)cc3)cc(-c3ccc(N(c4ccccc4)c4ccccc4)cc3)c(-c3ccc(C(C)(C)C)cc3)c2-c2ccc(C(C)(C)C)cc2)cc1 has what recorded photoluminescence quantum yield?
0.587

Which photoluminescence quantum yield value is on record for CC(C)(C)c1ccc2c(c1)sc1[n+]2[B-](F)(F)n2c(c3cccc4c(Br)ccc2c43)=N1 ?
0.63

Reported photoluminescence quantum yield, compound CCn1c2ccccc2c2cc(/C=C/c3cccc[n+]3CCCS(=O)(=O)[O-])ccc21 : ____
0.09

Recorded photoluminescence quantum yield for c1ccc(-c2nc3c(c4c2-c2ccccc2CC4)-c2ccccc2CC3)cc1 , please?
0.009

Need photoluminescence quantum yield, item CN(C)c1ccc(C(=Cc2ccc(C#N)cc2)c2ccc(N(C)C)cc2)cc1
0.056

Record request: photoluminescence quantum yield value, item CCCCCOc1cc2oc(=O)c3c4ccc(N(c5ccc(C)cc5)c5ccc(C)cc5)cc4c4ccc5cccc6c(c1)c2c3c4c56
0.53

Value lookup for photoluminescence quantum yield; key = C1=Cc2ccccc2C(=Cc2ccc(C=C3c4ccccc4-c4ccccc43)cc2)c2ccccc21
4e-05

Suppose we examine the compound Nc1ccc2c(c1)C(=O)N(C13C[C@H]4C[C@@H](C1)C[C@@H](C3)C4)C2=O ; what photoluminescence quantum yield value has been reported?
0.59

What value of photoluminescence quantum yield has been reported for the following compound? O=C(c1ccc(C(=C(c2ccccc2)c2ccccc2)c2ccccc2)cc1)c1ccc(-n2c3ccccc3c3ccccc32)cc1
0.208

###

experiment: photoluminescence quantum yield (fraction); solvent given as SMILES; settings: in ClC(Cl)Cl
Binary call on photoluminescence quantum yield with cut-off 0.4: strictly below means Criterion met, and equality or higher means Criterion not met.

Before answering, review these 3 worked examples.
Sample smiles: CCCCCCCCN1c2ccc(C#Cc3ccc(C(F)(F)F)cc3)cc2Sc2cc(C=O)ccc21
Group: Criterion not met
//
Sample smiles: c1ccc2c(c1)[nH]c1cccnc12
Group: Criterion met
//
Sample smiles: COc1ccc(C2=[N+]3C(=C(c4ccc(I)cc4)c4ccc(-c5ccc(OC)cc5)n4[B-]3(F)F)C=C2)cc1
Group: Criterion not met

Field: below-cutoff. Rule: recorded photoluminescence quantum yield strictly less than 0.4. Subject: F[B-]1(F)n2cccc2C(c2ccccc2)=C2C=CC(c3ccc(OC4=[N+]5C(=C(c6ccccc6)c6cc(Br)c(Br)n6[B-]5(F)F)C=C4Br)cc3)=[N+]21
Criterion met

photoluminescence quantum yield under 0.4? Item: CCCCCCCCOc1ccc(-c2c3c4n(c(-c5ccc(OCCCCCCCC)cc5)c3c3n2[B-](F)(F)[n+]2ccccc2N=3)[B-](F)(F)[n+]2ccccc2N=4)cc1
Criterion not met

State whether 0.4 exceeds photoluminescence quantum yield recorded for CCCCCCCCC1(CCCCCCCC)c2cc(-c3ccc(C(=O)OC)cc3)ccc2-c2ccc(-c3ccc(C(=O)OC)cc3)cc21 .
Criterion not met

Dear reviewer, please state whether O=C1c2ccc3c4c(-c5ccccc5)cc5c6c(ccc(c7c(-c8ccccc8)cc(c2c37)C(=O)N1C1CCCCC1)c64)C(=O)N(C1CCCCC1)C5=O has photoluminescence quantum yield strictly beneath 0.4.
Criterion met
